target: Voltage-gated potassium channel subunit beta-2 (Rattus norvegicus) (UniProt P62483); experiment: enhancers of rat Kvbeta2 NADPH turnover – biochemical, NADPH fluorescence, primary screen (AID 623); conditions: Recombinant KvBeta, NADPH fluorescence decrease slope, 10 min; at 10 µM; stronger effect = lower value;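 further: fluorescence intensity change per second fitted from 20 to 320 s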
Sequence (P62483 whole entry, looked up): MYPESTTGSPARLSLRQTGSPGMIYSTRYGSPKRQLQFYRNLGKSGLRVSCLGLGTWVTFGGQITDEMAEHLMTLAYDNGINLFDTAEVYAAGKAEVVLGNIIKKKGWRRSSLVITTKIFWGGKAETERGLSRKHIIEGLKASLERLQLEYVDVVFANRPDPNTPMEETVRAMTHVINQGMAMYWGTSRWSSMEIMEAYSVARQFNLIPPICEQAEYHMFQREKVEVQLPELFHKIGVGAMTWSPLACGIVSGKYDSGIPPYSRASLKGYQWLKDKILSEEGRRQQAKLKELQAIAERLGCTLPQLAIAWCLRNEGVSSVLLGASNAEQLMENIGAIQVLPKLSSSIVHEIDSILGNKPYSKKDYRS
recordedMetric: NADPH fluorescence slope
Lab note: jot down the number only; don't add units.

Example entries begin here.
Cc1ccccc1CN1CCN(C(=O)c2cccc(F)c2)CC1: -1.4e-05
COc1ccc(COC(=O)c2n[nH]c3ccccc23)cc1F: -5.5e-05
CCOC(=O)c1ccc(NC(=O)CSc2nnc(COc3ccccc3)n2C)cc1: -5e-05
CCC(=O)c1ccc(OCCN2CCOCC2)cc1: -4.5e-05
CCCc1cn(S(=O)(=O)c2ccc(OC)cc2OC)nc1N: -3.9e-05

stdin: Read off the recorded NADPH fluorescence slope for CC1CCCC(NC(=O)CSc2ncccc2C(=O)O)C1C (stereo not given)
stdout: -8.3e-06

stdin: Read off the recorded NADPH fluorescence slope for CCOc1ccc(N(CC(=O)NC2CCCC(C)C2C)S(=O)(=O)c2c(C)noc2C)cc1 (stereo not given)
stdout: 7.5e-06

stdin: Read off the recorded NADPH fluorescence slope for COc1cccc(N2CCN(CC(=O)NCc3cccs3)CC2)c1
stdout: -1.7e-05

stdin: Read off the recorded NADPH fluorescence slope for CC(C)(C)C(=O)Cn1c(=N)n(Cc2ccccc2)c2ccccc21
stdout: 4.3e-05

stdin: Read off the recorded NADPH fluorescence slope for COCCNC(=S)c1ccc(OC)cc1
stdout: -7.4e-05

stdin: Read off the recorded NADPH fluorescence slope for CC1CCCN(c2ccc(C(=O)NCc3cccs3)cn2)C1 (stereo not given)
stdout: -6.9e-06

stdin: Read off the recorded NADPH fluorescence slope for CC(C(=O)NC(=O)NC1CCCCC1)N1CCN(c2ccccn2)CC1 (stereo not given)
stdout: -4.4e-05

stdin: Read off the recorded NADPH fluorescence slope for O=C(Nc1ccc2c(c1)OCO2)C(c1ccccc1)N1CCC2(CC1)OCCO2 (stereo not given)
stdout: 3.6e-05

stdin: Read off the recorded NADPH fluorescence slope for COc1cc(CC(=O)Oc2ccc3c(c2)OCO3)cc(OC)c1OC
stdout: -5.2e-05

stdin: Read off the recorded NADPH fluorescence slope for O=C(CCN1C(=O)c2ccccc2C1=O)Nc1ccc(F)cc1
stdout: 4.4e-06

stdin: Read off the recorded NADPH fluorescence slope for CCC(=O)Nc1ccc(NC(=O)CSc2nnnn2C(C)C)cc1
stdout: -4.3e-05

stdin: Read off the recorded NADPH fluorescence slope for CCCCCn1c(CN(C)Cc2ccccc2)nc2c1c(=O)n(C)c(=O)n2C
stdout: -9.4e-05

stdin: Read off the recorded NADPH fluorescence slope for CC(=O)N1CCc2cc(S(=O)(=O)CCC(=O)N3CCN(c4ccccn4)CC3)ccc21
stdout: 5.1e-05

stdin: Read off the recorded NADPH fluorescence slope for Cc1cc(NC(=O)CS(=O)(=O)c2cn(Cc3cccc(F)c3)c3ccccc23)no1
stdout: -2.4e-05

stdin: Read off the recorded NADPH fluorescence slope for Cc1ccc2[nH]c(=O)c(C(c3nnnn3CCc3ccccc3)N3CCOCC3)cc2c1 (stereo not given)
stdout: -4.6e-05

stdin: Read off the recorded NADPH fluorescence slope for Nc1cc(-c2ccccc2)ccc1O
stdout: -1.6e-05

* * *

experiment: endothelial E-selectin expression blockers – imaging, HUVEC, immunofluorescence, MLSMR starter and 10KST1 sets, primary screen (AID 487); conditions: HUVEC TNFalpha-induced E-selectin immunofluorescence imaging, at 2 µM; measured here: cell number, toxicity;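 further: 100% = median nuclei count of all wells on the same plate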
Entries and their nuclei count
Give the value in % but do not write % after it.

Example entries begin here.
Cc1ccccc1OCc1nc2ccccc2c(=O)n1/N=C/c1ccco1: 85.3
CCN(CC)C(=O)Cn1ncc2c1-c1ccccc1OC2: 123
CC1CCCCN1CCNC(=O)c1ccc2c(=O)n(CCc3ccccc3)c(=O)[nH]c2c1 (stereo unspecified): 119
CS(=O)(=O)N1CCCC(C(=O)NCCCN2CCc3ccccc3C2)C1 (stereo unspecified): 83.4
O=C(O)c1ccc(NC(=O)c2cccs2)cc1: 117
O=C(OCC(=O)N1CCCC1)c1cncc(Br)c1: 102
Cc1cc(=O)oc2cc(OCC(=O)OCC(=O)N3CCc4ccccc43)ccc12: 103
COc1ccc(-n2nnc3c(=O)n(C/C=C/c4ccccc4)cnc32)cc1: 115

stdin: Read off the recorded nuclei count for COc1ccc2[nH]c(=O)c(CN(Cc3cccs3)Cc3nnnn3C(C)(C)C)cc2c1
stdout: 88.8

stdin: Read off the recorded nuclei count for Cc1cc(NC(=O)CSc2nnc(COc3cccc(C)c3C)n2Cc2ccco2)no1
stdout: 101

stdin: Read off the recorded nuclei count for CCOc1ccc(C2CC(c3ccccc3C)n3nc(N)nc3N2)cc1 (stereo unspecified)
stdout: 90.1

* * *

assay: reduction of polyQ htt aggregates in cells – imaging, exon1htt(103Q)mCFP cells, high-content imaging, primary screen (AID 483); conditions: exon1htt(103Q)mCFP cell line, aggregate imaging, at 2 µM; measured here: cell count, toxicity;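 further: compound exposure lasted 3 days before fixation; percent of the per-plate median nuclei count of sample wells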
recordedMetric: nuclei count (%)
Give the value in % but do not write % after it.

Example entries begin here.
CCN(CC)c1nc2cc(OC)ccc2cc1C#N: 101
CN(C)C(=O)CN(C)S(=O)(=O)c1ccc(Cl)cc1: 93.2
COc1ccc(C/C(O)=C(\C#N)c2nc3ccccc3s2)cc1: 98.5
O=C(NC1CCCCCC1)c1c(F)c(F)c(F)c(F)c1F: 104
CCOC(=O)C1CCN(C(=O)CN(Cc2ccccc2)S(C)(=O)=O)CC1: 102

# input for lookup
stdin: Read off the recorded nuclei count for O=C(Nc1ccc(NC(=O)C2CC2)cn1)c1ccccc1Cl
stdout: 104

* * *

Entries and their inhibition
assay: TLR3 IRF3 reporter activation blockers – cell-based, poly I:C stimulus, luciferase, 10K MLSCN set, primary screen (AID 602277); conditions: HEK293-TLR3 RL24 IRF3 luciferase reporter, at 10 µM, stronger effect = higher value
Give the value in % but do not write % after it.

stdin: Read off the recorded inhibition for COc1ccccc1NC(=O)CSc1nnc(Cn2nnc(-c3ccccc3)n2)n1-c1ccccc1
stdout: 14.5

stdin: Read off the recorded inhibition for Cc1cc(NC(=O)CSc2nnc(COc3cccc(C)c3C)n2Cc2ccco2)no1
stdout: 11.9

stdin: Read off the recorded inhibition for COc1cc(SC)ccc1C(=O)Nc1ccccc1C#N
stdout: -61.5

stdin: Read off the recorded inhibition for Cc1cc2ccccc2n1CCNC(=O)C1CC1
stdout: 33.2

stdin: Read off the recorded inhibition for O=C(NCc1ccccc1)C1CCCN(S(=O)(=O)c2cccnc2)C1 (stereo unspecified)
stdout: 11

stdin: Read off the recorded inhibition for CCOC(=O)N1CCN(C(=O)c2ccc3nc4cc(Cl)ccc4c(=O)n3c2)CC1
stdout: 6.7

stdin: Read off the recorded inhibition for CCCCN(C)Cc1c(O)ccc2c(-c3ccccc3)cc(=O)oc12
stdout: 28.4

stdin: Read off the recorded inhibition for Cc1ccc(NC(=O)CNc2cccc(C)c2C)c(C)c1
stdout: -4.35

stdin: Read off the recorded inhibition for CCN1C(=O)/C(=C/N(C)c2ccccc2)OC1=S
stdout: -64.8

stdin: Read off the recorded inhibition for Cc1nc(Nc2nc(=O)c3ccccc3n2C)nc2c(C)cccc12
stdout: 22.9

stdin: Read off the recorded inhibition for COC(=O)COc1nc(C)c(Br)c(OC)n1
stdout: 17.1

* * *

assay: inhibitors of TNFa-induced NFkB p65 translocation, primary screen, imaging, HUVEC, MLSMR starter and 10KST1 sets (AID 438); settings: HUVEC TNFa-induced p65 nuclear translocation; at 2 µM, 0% TNFa-plus-vehicle, 100% no-TNFa wells;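 further: compound added about 3h40 before a 20 min TNFalpha stimulation; signal is the nuclear over cytoplasmic p65 intensity ratio per well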
Active and inactive are the calls of the source.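 The calls were made as follows: active = inhibition above 20% together with a positive visual image hit; inconclusive = visual image hit but inhibition not above 20%; inactive = no visual image hit.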
Could you please pick one outcome from this set? active, inactive

stdin: # outcome recorded in this test, key = COc1ccccc1-n1cnc(N)c1C(C)=O
stdout: inactive

* * *

assay: TLR3 IRF3 reporter activation blockers – cell-based, poly I:C stimulus, luciferase, 10K MLSCN set, primary screen (AID 602277); conditions: HEK293-TLR3 RL24 IRF3 luciferase reporter, at 10 µM
The source made the active and inactive calls.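 Rule for the calls: active = inhibition of the reporter signal at or above 50%; inactive = inhibition below 50%.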
Could you please pick one outcome from this set? active, inactive

Nn1c(SCC(=O)Nc2ccccc2)nnc1-c1cccnc1: inactive

stdin: # outcome recorded in this test, key = NC(=O)CSc1nnc(-c2cnccn2)n1-c1ccccc1
stdout: inactive

stdin: # outcome recorded in this test, key = Cc1n[nH]c(C)c1N1C(=O)c2cccc3cc(Br)cc(c23)C1=O
stdout: inactive

stdin: # outcome recorded in this test, key = COc1cc(Nc2cc(C)nc3ncnn23)cc(OC)c1OC
stdout: inactive

stdin: # outcome recorded in this test, key = CCCOC(=O)/C(C(N)=NCc1ccccc1)=C(\O)OCCC
stdout: inactive

stdin: # outcome recorded in this test, key = CC(Sc1n[nH]c(=O)[nH]c1=O)C(=O)OCc1ccccc1 (stereo not drawn)
stdout: inactive

stdin: # outcome recorded in this test, key = Cc1cc(NC(=O)CCCC(=O)Nc2ccc(F)cc2)no1
stdout: inactive

stdin: # outcome recorded in this test, key = CC(=O)c1cc2c(cc1NC(=O)CN1CCN(C(=O)c3ccco3)CC1)OCO2
stdout: inactive

stdin: # outcome recorded in this test, key = COCCn1cc(C(=O)c2ccccc2OCC(=O)Nc2cc(C)on2)cc(C#N)c1=O
stdout: inactive

stdin: # outcome recorded in this test, key = CCCCOc1ccc(-c2nnn(C(C)(C)C(=O)OC)n2)cc1
stdout: inactive

stdin: # outcome recorded in this test, key = O=C(OC1CCc2ccccc2C1=O)c1ccccc1O (stereo not drawn)
stdout: inactive

stdin: # outcome recorded in this test, key = Nc1nnc(-c2ccccc2)c(-c2ccccc2)n1
stdout: inactive
